Provenance of the data: PubChem BioAssay (NCI)

Tested on: U251 CNS
Experiment: NCI tumour cell line growth inhibition, 48 h
# Lookup of reported TGI keyed by entry
measurementType: TGI (µM)

* COc1cccc(/C=C/C(=O)c2ccc3cc(OC)ccc3c2)c1 | 42
* O=S(O)CCCCCSSc1ccccc1 | 94.1
* CC(C)OC(=O)c1ccc(NCc2cc(O)ccc2O)cc1 | 17.1
* COC(=O)C(CC(C)C)NC(=O)C(NC(=O)c1ccc(-c2ccc(Cl)cc2Cl)o1)C(C)C (centres undefined) | 46
* COc1ccc2c(c1)OC(N)=C(C#N)C2c1cc(OC)c(OC)c(OC)c1 (centres undefined) | 1.48
* CCCCN(CCCC)C(=O)[C@H](CC)[C@@H]1CC[C@@H](C)[C@@H]([C@H](C)[C@@H](O)[C@@H](C)C(=O)[C@H](CC)C2O[C@]3(C=C[C@@H](O)[C@]4(CC[C@@](C)([C@H]5CC[C@](O)(CC)[C@H](C)O5)O4)O3)[C@H](C)C[C@@H]2C)O1 (some centres undefined) | 10.3
* COc1ccc2nc3cc(Cl)ccc3c(NCCCNCCO)c2c1 | 2.12
* COc1ccc(C(O)c2cc3c(N)c(C(=O)Nc4ccc(Cl)cc4)sc3nc2C)cc1 (centres undefined) | 15.8

====

System: NCI-H522 lung
Experiment: NCI tumour cell line growth inhibition, 48 h
# Lookup of reported GI50 keyed by entry
measurementType: GI50

- O=C1NC(=S)S/C1=C\c1cn(-c2ccccc2)nc1-c1ccccc1: 2.96 µM
- CCOC(=O)CSc1cc(Cl)c(C)cc1S(=O)(=O)/N=C(/N=C/c1ccc([N+](=O)[O-])s1)NNC: 30.2 µM
- CCOC(=O)c1c(-c2ccccc2)[n+](=O)c2cc(Cl)c(Cl)cc2n1[O-]: 14.2 µM
- CN(C)c1ccc(/C=C\c2ccnc3ccccc23)cc1: 6.4 µM
- c1cc(N[C@@H]2CCNC2)nc(-c2cnc3ccc(-c4cn[nH]c4)cn23)c1: 0.916 µM
- COc1ccc(C(O)c2cc3c(N)c(C(=O)Nc4ccc(Cl)cc4)sc3nc2C)cc1 (stereo unspecified): 4.05 µM
- COc1cc2oc(-c3cccc(C(=O)Nc4ccc(Cl)cc4)c3)cc(=O)c2c(OC)c1OC: 1.73 µM
- CC(C)(C)c1cc(C(=O)Nc2ccccc2C(=O)NCCN)cc(C(C)(C)C)c1: 1.85 µM
- O=C1Nc2ccc(Cl)cc2/C1=C\c1c(-c2ccc(Cl)cc2)nc2sc(C3CC3)nn12: 4.5 µM
- O=C(CS(=O)(=O)c1nc2ccccc2nc1-c1ccccc1)Nc1ccc(F)cc1: 48.2 µM
- CCCCN(CCCC)C(=O)[C@H](CC)[C@@H]1CC[C@@H](C)[C@@H]([C@H](C)[C@@H](O)[C@@H](C)C(=O)[C@H](CC)C2O[C@]3(C=C[C@@H](O)[C@]4(CC[C@@](C)([C@H]5CC[C@](O)(CC)[C@H](C)O5)O4)O3)[C@H](C)C[C@@H]2C)O1 (stereo partly specified): 2.08 µM
- N#CCn1c(=O)c(Oc2ccc(F)cc2F)cc2cnc(NC3CCOCC3)nc21: 15 µM
- O=C1CC(c2c[nH]c3ccc(F)cc23)C(=O)N1 (stereo unspecified): > 100 µM
- NC(N)=N/N=C/c1c(-c2ccsc2)nc2n1CCS2: 39.3 µM
- c1ccc(-c2oc(-c3ccccc3)c(CN3CCCCC3)c2CN2CCCCC2)cc1: 2.47 µM
- C=C1C(=O)O[C@H]2[C@H]1CC/C(COC(=O)c1cc(OC)c(OC)c(OC)c1)=C\CC[C@@]1(C)O[C@@H]21: 0.589 µM

====

# Lookup of reported TGI keyed by entry
Test system: A498 renal
Assay: NCI tumour cell line growth inhibition, 48 h
measurementType: TGI (µM)

* CSc1nc(=S)[nH]c2c1c(C)nn2-c1ccccc1 | 80.6
* CCCCCCCC/C=C1\CCC(CN(C)C)C1=O (configuration not stated) | 30.7
* Cc1cc(=O)oc2ccc(OC/C=C3\CCC(=O)O3)cc12 | 50.6
* CCOC(=O)c1c[nH]c(C(=O)OCC)c1-c1cccn1-c1ccccc1 | 86.2
* O=C1/C(=C/c2ccc(Cl)c(Cl)c2)CN(C(=O)C(Cl)Cl)C/C1=C\c1ccc(Cl)c(Cl)c1 | 0.664

====

System: NCI-H226 lung
Test: NCI tumour cell line growth inhibition, 48 h
# Lookup of reported TGI keyed by entry
measurementType: TGI

* O=S1(=O)N2CN3CN(C2)CN1C3 | 188 µM
* CCS(=O)C(=O)N(O)c1ccc(Cl)cc1 (stereo unspecified) | > 100 µM
* COCC(C)(C)N=CN1Cc2cc3ccccc3nc2C1 | > 100 µM
* O=C(O)c1nc2ccccc2nc1Nc1ccc(Cl)c(Cl)c1 | > 100 µM
* COc1ccc(/C=c2\c(=O)[nH]c3nc4ccccc4c(=O)n23)cc1 | > 100 µM
* CCCCN(CCCC)C(=O)[C@H](CC)[C@@H]1CC[C@@H](C)[C@@H]([C@H](C)[C@@H](O)[C@@H](C)C(=O)[C@H](CC)C2O[C@]3(C=C[C@@H](O)[C@]4(CC[C@@](C)([C@H]5CC[C@](O)(CC)[C@H](C)O5)O4)O3)[C@H](C)C[C@@H]2C)O1 (stereo partly specified) | 5.51 µM
* O=C1C(c2ccccc2)=C(c2ccccc2)C(c2ccc(Cc3ccc(C4=C(c5ccccc5)C(=O)C(c5ccccc5)=C4c4ccccc4)cc3)cc2)=C1c1ccccc1 | > 100 µM
* C=C1CC(C)(COc2ccc3c(C)c(Cl)c(=O)oc3c2)OC1=O (stereo unspecified) | 17.8 µM
* CCCCOCCOCCOC1=CC(=O)c2c(O)ccc(O)c2C1=O | 3.59 µM
* O=C(O)C1=C/C(=C(/c2ccccc2)c2cc(C(=O)O)c(O)c3ccccc23)c2ccccc2C1=O | > 100 µM
* COc1cc2oc(-c3cccc(C(=O)Nc4ccc(Cl)cc4)c3)cc(=O)c2c(OC)c1OC | 94.8 µM
* O=C(CNc1ccccn1)Nn1cnc2ccc(S(=O)(=O)Nc3ccccn3)cc2c1=O | > 100 µM
* C/C(=C/C(=O)Nc1ccccc1)Nc1onc(C)c1C | > 100 µM
* C#CC[C@@H]1C(=O)N(Cc2ccc(OC)cc2)[C@@H](C(C)C)C(=O)N1Cc1ccc(OC)cc1 | > 100 µM
* CC(C)(C)OC(=O)NC1CCCC1C(=O)C1=CCCC1 (stereo unspecified) | > 100 µM
* CC1=NN(c2nc(N)nc(NS(=O)(=O)c3cc(C)c(Cl)cc3S)n2)C(C)(C)C1 | > 10 µM
* CC(C)(CN1C(=O)C(Cl)=C(Cl)C1=O)CN1C(=O)C(Cl)=C(Cl)C1=O | 53.4 µM
* O=C(Cc1ccccc1)NN1C(=O)C(Cl)C1c1ccccc1Cl (stereo unspecified) | > 100 µM
* O=C1NC(=NCc2ccccc2Cl)S/C1=C\c1ccc2ncccc2c1 | > 25 µM
* CN(C)CCNc1ccc2ncn3c4ccccc4c(=O)c1c23 | 6.05 µM
* Nc1nncc2c1c(Br)cn2C1OC(CO)C(O)C1O (stereo unspecified) | > 100 µM

====

Test system: UACC-62 melanoma
Assay: NCI tumour cell line growth inhibition, 48 h
# Lookup of reported TGI keyed by entry
measurementType: TGI

• O=C(NN1C(=O)C(Cl)C1c1ccccc1O)c1ccccc1O (centres undefined) = > 100 µM
• O=C(CNc1ccccn1)Nn1cnc2ccc(S(=O)(=O)Nc3ccccn3)cc2c1=O = > 100 µM
• NC1NC=NC2C1N=CN2C1OC(CO)C2[O][Sn][O]C21 (centres undefined) = > 100 µM
• CCN1CCN(c2nc(C)cc(N(CCCNc3ccnc4cc(Cl)ccc34)Cc3ccc4c(c3)OCO4)n2)CC1 = 3.32 µM
• C=C1C(=O)O[C@H]2[C@H]1CC/C(COC(=O)c1cc(OC)c(OC)c(OC)c1)=C\CC[C@@]1(C)O[C@@H]21 = 2.67 µM
• O[C@]12C=C(c3nccc4c3[nH]c3ccccc34)[C@@H]3CCN(CCCC/C=C\CC1)C[C@@]31CC3/C=C\CCCCN3[C@H]12 (some centres undefined) = 0.159 µM
• C1CNOCCCONCCCNOCCCONC1 = > 100 µM
• CCOC(=O)C(NC(=O)OCc1ccccc1)C(=O)O (centres undefined) = > 100 µM
• COC(=O)C1(NC(=O)C(Cc2ccccc2)N(C(=O)OC(C)(C)C)C(=O)OC(C)(C)C)CCCC1 (centres undefined) = > 100 µM

====

# Lookup of reported TGI keyed by entry
Test system: A549 NSCLC
Assay: NCI tumour cell line growth inhibition, 48 h
measurementType: TGI

* CC(=O)Nc1[nH]n(C)c(=O)c1-c1nnc(C)s1 | > 100 µM
* CC(=O)C1CCN(c2ccccc2)C1 (centres undefined) | > 100 µM
* COc1ccccc1NC(=O)C1=C(C)NC(C)=C(C(=O)Nc2ccccc2OC)C1c1ccccc1[N+](=O)[O-] | > 100 µM
* COc1ccc(/C=c2\c(=O)[nH]c3nc4ccccc4c(=O)n23)cc1 | > 100 µM
* CC(=O)OCC1OC(n2c(=S)n(-c3ccc([N+](=O)[O-])cc3)c(=O)c3ccccc32)C(OC(C)=O)C(OC(C)=O)C1OC(C)=O (centres undefined) | > 100 µM
* CC1=CC2C(C=C1)S(=O)(=O)N1CC21c1ccccc1 (centres undefined) | > 100 µM
* Cc1cc(=O)oc2ccc(OC/C=C3\CCC(=O)O3)cc12 | 33 µM
* CCOC(=O)[C@@H](C)C[C@H](Cc1ccccc1)NC(=O)c1csc([C@@H](C[C@H](C(C)C)N(C)C(=O)[C@@H](NC(=O)[C@H]2CCCCN2C)C(C)(C)CC)OC(C)=O)n1 | > 16.7 µM
* O=S1(=O)N2CN3CN(C2)CN1C3 | 935 µM
